- Assay Summary: Multiple ascending dose study in obese males: pharmacokinetics
- Assay type: in vivo, human
- Assay Setup: male, human, plasma, oral, 450 mg, fed conditions (high fat breakfast); read-out: Median Tmax
- Excerpt: The primary endpoints of this study included safety and tolerability, pharmacokinetics, and biomarkers. […]
Metric Name: Tmax (h)
Give bare numbers, in h.

Which value of Tmax has been reported for CCCCCCCC/C(=C\CCCCCCCC(=O)O)[N+](=O)[O-] [CXA-10, 10-nitro-9(E)-octadec-9-enoic acid] in the records? 6

###

- System Under Test: CYP450 3A4 (Homo sapiens, UniProt P08684)
- Sequence (P08684 whole entry): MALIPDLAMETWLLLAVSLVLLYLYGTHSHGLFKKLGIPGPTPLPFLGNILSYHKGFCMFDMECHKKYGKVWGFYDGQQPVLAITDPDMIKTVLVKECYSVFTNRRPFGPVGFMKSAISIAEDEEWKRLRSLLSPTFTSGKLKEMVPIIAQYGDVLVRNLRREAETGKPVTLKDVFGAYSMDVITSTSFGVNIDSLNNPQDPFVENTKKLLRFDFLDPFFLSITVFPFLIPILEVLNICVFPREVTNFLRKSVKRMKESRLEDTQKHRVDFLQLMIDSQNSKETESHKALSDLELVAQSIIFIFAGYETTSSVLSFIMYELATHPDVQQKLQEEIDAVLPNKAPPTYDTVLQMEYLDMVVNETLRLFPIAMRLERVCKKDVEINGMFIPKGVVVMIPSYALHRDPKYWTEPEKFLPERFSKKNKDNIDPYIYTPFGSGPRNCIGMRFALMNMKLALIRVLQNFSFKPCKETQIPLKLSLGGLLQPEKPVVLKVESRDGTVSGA
Metric Name: IC50

Which value of IC50 has been reported for CCCCCCCC/C(=C\CCCCCCCC(=O)O)[N+](=O)[O-] [CXA-10, 10-nitro-9(E)-octadec-9-enoic acid] in the records? > 33 µM
